Measured Fld improvement, listed per entry for reference.
ASSAY TARGET: T1, Human IL-13 (human, UniProt P35225 35-146)
T1 construct: also called human interleukin 13 (Peprotech); the antigen
T1 sequence (P35225 35-146 limits assumed): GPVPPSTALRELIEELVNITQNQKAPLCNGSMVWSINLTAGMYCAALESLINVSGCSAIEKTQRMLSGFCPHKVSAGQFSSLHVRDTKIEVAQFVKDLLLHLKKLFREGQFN
ASSAY SUMMARY: IC50 of the parent scFv divided by IC50 of the clone, biochemical receptor-ligand inhibition assay, purified scFv (second panel)

{"BINDER": "13NG0082 (scFv, V domains shown, purified scFv from the mini-recombination library; member of group m20; also called ZZ0SEF-E03; copies: 1 + 1) VH: QVQLVQSGAEVKKPGASVKVSCKASGYTFTNYGLSWVRQAPGQGLEWMGWINYDGGNTQYGQEFQGRVTMTTDTSTSTAYMELRSLRSDDTAVYYCARDSSSSWARWFFDLWGRGTLVTVSS VL: SYVLTQPPSVSVAPGKTARIPCGGNMVGARLVHWYQQKPGQAPVLIVFDDEDRPSGIPERFSGSNSGNTATLTISRVEAGDEADYYCQVWDTGSRPVVFGGGTKLTVL", "Fld improvement / fold": 4.2}
{"BINDER": "13NG0085 (scFv, V domains shown, purified scFv from the mini-recombination library; member of group m20; also called ZZ0SEF-G10; copies: 1 + 1) VH: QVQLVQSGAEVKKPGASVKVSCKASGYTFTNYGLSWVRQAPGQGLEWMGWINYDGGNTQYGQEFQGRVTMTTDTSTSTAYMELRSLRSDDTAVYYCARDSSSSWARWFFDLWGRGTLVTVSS VL: SYVLTQPPSVSVAPGKTARIPCGGNMVGARLVHWYQQKPGQAPVLIIMDDIDRPSGIPERFSGSNSGNTATLTISRVEAGDEADYYCQVWDTGSRPVVFGGGTKLTVL", "Fld improvement / fold": 4.2}
{"BINDER": "13NG0078 (scFv, V domains shown, purified scFv from the mini-recombination library; member of group m20; also called ZZ0SFL-G06; copies: 1 + 1) VH: QVQLVQSGAEVKKPGASVKVSCKASGYTFTNYGLSWVRQAPGQGLEWVGWINYDGGNTQYGQEFQGRVTMTTDTSTSTAYMELRSLRSDDTAVYYCARDSSSSWARWFFDLWGRGTLVTVSS VL: SYVLTQPPSVSVAPGKTARIPCGGNLIAARLVHWYQQKPGQAPVLIMFDDQDRPSGIPERFSGSNSGNTATLTISRVETGDEADYYCQVWDTGSLPVVFGGGTKLTVL", "Fld improvement / fold": 6.4}
